experiment: Pharmacokinetic study of Icotinib hydrochloride and Polymorph Form II of Icotinib phosphate, oral suspension in fasted SD rats; assay type: in vivo; details: female, SD, rat, plasma, po, 50 mg/kg, female SD rats, dose equivalent to 50 mg/kg Icotinib, read-out: Tmax
Counter-ions that a name gives are not always drawn.
Assay Metric: Tmax (h)
Field format: number, assumed h, no unit text.

Req: Would you kindly share the measured Tmax for C#Cc1cccc(Nc2ncnc3cc4c(cc23)OCCOCCOCCO4)c1 [Icotinib hydrochloride] ?
Resp: 3

---

assay: Pharmacokinetic study of Icotinib hydrochloride and Polymorph Form II of Icotinib phosphate, oral suspension in fasted SD rats; format: in vivo; settings: female, SD, rat, plasma, po, 50 mg/kg, female SD rats, dose equivalent to 50 mg/kg Icotinib
Structures can show the parent of a compound that is named as a salt.
Assay Metric: AUC(0-inf) (µg·h/mL)
Field format: number, assumed µg·h/mL, no unit text.

Req: Would you kindly share the measured AUC(0-inf) for C#Cc1cccc(Nc2ncnc3cc4c(cc23)OCCOCCOCCO4)c1 [Icotinib hydrochloride] ?
Resp: 124

Measured values drawn from patent US9688687B2 for this set.
